System: MDA-MB-435
Assay: NCI tumour cell line growth inhibition, 48 h
PROPERTY LABEL: TGI (µM)
Response body: numeric value in µM, unit text excluded.

// lookup TGI for CC(C)(C)c1cc(C(C)(C)C)c2c(c1O)OC(=O)CS2 20.1

Moving on to CCCOc1cc2c(cc1O)CC[C@@H]1[C@@H]2CC[C@]2(C)[C@@H](O)CC[C@@H]12 5.91

Then what about the compound Cc1ccc2nc3ccccc3c(NCc3ccccc3)c2c1 ? 10.8

Can you handle COc1ccc(C(=O)C2C(C#N)C(C#N)C3C=Cc4ccccc4N32)cc1 (centres undefined) next? 1.24

###

Assignment: determine reported TGI for the given compounds.
Tested on: T-47D breast
Experiment: NCI tumour cell line growth inhibition, 48 h

Tell me the measured TGI of O=c1[nH]c2ccccc2nc1CBr , please. 31.1 µM

Next compound: CCN(CCCl)CCCCNc1c2ccccc2nc2ccc(OC)cc12 1.5 µM

Now the same for O=[N+]([O-])[O][Sn]([O][Sn]([O][N+](=O)[O-])([c]1ccccc1)[c]1ccccc1)([c]1ccccc1)[c]1ccccc1 > 100 µM

Try the compound COc1cc(C(=O)/C=C/c2cc(-c3cc(OC)c(OC)c(OC)c3)n[nH]2)cc(OC)c1OC 2.57 µM

Try this compound too: COC(=O)[C@H](Cc1c[nH]c2ccccc12)NC(=O)OCC1OC(n2cc(C)c(=O)[nH]c2=O)CC1N=[N+]=[N-] (stereo not given in full) > 100 µM

Can you handle CC(C)(C)c1cc(COc2cc(COc3ccc(-c4c5c(nc6c4CCc4ccc(-c7c8ccccc8nc8ccccc78)cc4-6)-c4cc(-c6c7ccccc7nc7ccccc67)ccc4CC5)cc3)cc(OCc3cc(C(C)(C)C)cc(C(C)(C)C)c3)c2)cc(C(C)(C)C)c1 next? > 100 µM

Then what about the compound COC(=O)CCCc1ccc2c(c1)CC1(Cc3ccccc3C1)C2 ? > 100 µM

Also need CC1(C)CSCC(C)(C)C(=N/N)/C1=N\N , thanks. > 100 µM

Next compound up: COc1ccc2[nH]c(C(=O)N3CCN(C(=O)OCc4ccc5c(Br)cc(Br)c(O)c5n4)CC3)cc2c1 4.46 µM

Queued: Cn1ncc(NCCn2cnc3c2c(=O)n(C)c(=O)n3C)c(Cl)c1=O > 100 µM

Try this compound too: CCCCCCC/C(=N\N=C(N)N)c1ccc(O)cc1 4.89 µM

Same for COc1ccc(C(=O)C2C(C#N)C(C#N)C3C=Cc4ccccc4N32)cc1 (stereo not given) > 100 µM

Next compound up: COC(=O)c1ccccc1C1CN=NC12Cc1c(C)cccc1C2=O (stereo not given) > 100 µM

What about c1cc2ccc3cc2cc1CNCCN1CCNCc2ccc4ccc(cc4c2)CNCCN(CCNC3)CCNCc2ccc3ccc(cc3c2)CNCC1 ? 7.54 µM

Note, next up: C/C1=C/C2OC(=O)C3(C)C2C(CC2(C)OC1=CC2=O)OC3(O)C(C)C (stereo not given) > 100 µM

// same read-out, input: Cc1ccncc1N1CCN(c2ccnc(Cl)c2)C1=O > 100 µM

Next: COC(=O)c1ccc([C@H]2c3[nH]c4ccccc4c3C[C@H](C(=O)OC)N2C(=O)CCl)cc1 13.3 µM

Moving on to CC(=O)Oc1cc2c[n+](C)c3c4cc(OC(C)=O)c(OC(C)=O)cc4ccc3c2cc1OC(C)=O > 100 µM

Now give it for Cc1ccc(C(=O)CCl)o1 too. > 7.79 µM

Moving on to CC(O)C1(CNc2cc(Cl)nc(N)n2)CCCC1 (stereo not given) > 100 µM
